tested on: RAW264.7; assay: Cytotoxicity against mouse RAW264.7 cells after 72 hrs by MTT assay; assay type: cell-based; conditions: RAW264.7, 72 h
readout.kind: IC50

smiles_entry=O=C(Nc1cc(O)cc(Cc2ccccc2)c1)C1CCCCC1 test_system=RAW264.7 meas_value="> 323 µM"
smiles_entry=O=C(Nc1cc(O)cc(Cc2ccccc2)c1)c1ccccc1 test_system=RAW264.7 meas_value="> 330 µM"

---

system: Staphylococcus aureus; experiment: Toxicity in Staphylococcus aureus after 18 to 24 hrs by two-fold serial dilution method; format: organism-based
readout.kind: MIC

compound=O=C(Nc1cc(O)cc(Cc2ccccc2)c1)C1CCCCC1 readout_kind=MIC meas_value="> 50 µg/mL"
compound=CC1(C)S[C@@H]2[C@H](NC(=O)[C@H](N)c3ccc(O)cc3)C(=O)N2[C@H]1C(=O)O readout_kind=MIC meas_value="0.78 µg/mL"
compound=O=C(Nc1cc(O)cc(Cc2ccccc2)c1)c1ccccc1 readout_kind=MIC meas_value="> 50 µg/mL"
compound="CC1COc2c(N3CCN(C)CC3)c(F)cc3c(=O)c(C(=O)O)cn1c23 (centres undefined)" readout_kind=MIC meas_value="0.31 µg/mL"
